Test: P. aeruginosa biofilm formation inhibitors, primary screen, PAO1 strain, BacTiter-Glo luminescence, LB-PBS (AID 1144)
Conditions: 12 h, higher = more signal
Please map values of z-score to classes as shown: low end: < -0.2; middle: ≥ -0.2 and < 0.2; high end: ≥ 0.2

- CCOC(=O)C1=CC[C@@H](c2ccccc2)N(S(=O)(=O)c2ccc(C)cc2)[C@H]1c1ccccc1C: low end
- CC(C)CNC(=O)[C@@]1(Cc2ccccc2I)c2ccccc2C(=O)N(C2CCCCC2)[C@H]1c1ccc(CO)cc1: middle
- C=C(COC)C(=O)CC[C@@H](OC(C)=O)c1ccc(CO)o1: low end
- COCCOC(=O)N1C(=O)[C@@]2(c3cc(C#Cc4ccc(OC)cc4)ccc31)[C@H](c1ccc(OCCO)cc1)N1[C@H](c3ccccc3)[C@H](c3ccccc3)OC(=O)[C@H]1[C@@H]2C(=O)N1CCN(c2ncccn2)CC1: middle

-- ask Which category fits this record: `C=CCNC(=O)[C@@H]1[C@H]2C(=O)O[C@H](c3ccccc3)[C@H](c3ccccc3)N2[C@H](c2ccc(OCCO)cc2)[C@@]12C(=O)Nc1ccc(C#CCC(C(=O)OC)C(=O)OC)cc12`
-- reply high end

-- ask Given `O=C(c1ccccc1)N1Cc2ccccc2C[C@@]2(COC(c3ccc(OCCCO)cc3)=N2)C1=O` , name the class its z-score places it in.
-- reply middle

-- ask # classify by z-score band: CCCc1cc2c(n1Cc1cc(F)cc(F)c1)C(C)C1CN(C(=O)c3ccccc3)C(C)(C(=O)OC)C21 (stereo unspecified)
-- reply high end

-- ask Assign a bin to `CN(C)CCCC[C@@H]1NC(=O)[C@@H]2C[C@H](C(=O)NCCCCCCN)[C@H](c3cccc(OCCO)c3)N2C1=O`
-- reply middle

-- ask Which z-score category applies to O=C1NC(=O)C2C1C=CC(C(O)c1cc(C(F)(F)F)cc(C(F)(F)F)c1)N2Nc1ccccn1 (stereo unspecified) here?
-- reply middle

-- ask Each molecule maps to one class by z-score. Which class for `C[N+](C)(C)CCCCCCNC(=O)[C@@H]1C[C@@H]2C(=O)N[C@@H](Cc3ccccc3)C(=O)N2[C@@H]1c1cccc(OCCO)c1` ?
-- reply low end

-- ask Exam item: assign `COc1cc2c(cc1OC)CN(C(=O)[C@@H]1[C@H]3C(=O)O[C@H](c4ccccc4)[C@H](c4ccccc4)N3[C@H](c3ccccc3OCCO)[C@@]13C(=O)Nc1ccc(C#CCCO)cc13)CC2` to the correct category.
-- reply high end
